System: HT-29
assay_text: NCI tumour cell line growth inhibition, 48 h
Activity calls are given as the source filed them. No stated cut-off is given here; in the data, active = GI50 up to about 1.1 µM and inactive = higher.
Would you mind answering with one of these outcomes? true (1) (active), false (0) (inactive)

CC1(C)CC(=O)C(=CNc2nc(-c3ccccc3)cs2)C(=O)C1 = false (0)
Cc1ccc2c(c1)C(=O)C1(C2)Cc2ccc(C)cc2C1=O = false (0)
CCCNC(C#N)c1ccc(C(C#N)NCCC)cc1 (stereo unspecified) = false (0)
COS(=O)CCOC(=O)c1ccccc1SSc1ccccc1C(=O)OCCS(=O)OC (stereo unspecified) = false (0)
CC(=O)Oc1cc(/C=C/c2ccc(O)cc2)cc(OC(C)=O)c1 = false (0)
COc1cc(C(=O)C2CC3(CCC2(O)c2cc(OC)c(OC)c(OC)c2)CC(=O)Nc2ccccc2C3=O)cc(OC)c1OC (stereo unspecified) = false (0)
CCOC(=O)c1c(-c2ccc(OC)cc2)c(C#N)c(=S)n(C2OC(COC(C)=O)C(OC(C)=O)C(OC(C)=O)C2OC(C)=O)c1C (stereo unspecified) = false (0)
COC(=O)CNS(=O)(=O)c1ccc(-c2c3nc(c(-c4ccc(S(=O)(=O)NCC(=O)OC)cc4)c4ccc([nH]4)c(-c4ccc(S(=O)(=O)NCC(=O)OC)cc4)c4nc(c(-c5ccc(S(=O)(=O)NCC(=O)OC)cc5)c5ccc2[nH]5)C=C4)C=C3)cc1 = false (0)
O=C(C1C(c2ccccc2)N1C(c1ccccc1)c1ccccc1)C1C(c2ccccc2)N1C(c1ccccc1)c1ccccc1 (stereo unspecified) = false (0)
O=c1cc(-c2ccccc2F)[nH]c2ccc(N3CCCC3)cc12 = true (1)

### Prompt Give the logged outcome of this assay for the following compound: `COc1ccc2c3c1O[C@H]1[C@@H](O)CC[C@@]4(O)[C@@H](C2)N(C)CC[C@]314`
### Response false (0)

### Prompt Give the logged outcome of this assay for the following compound: `CN1C2CCC1/C(=C/c1cccc3c1OCO3)C(=O)/C2=C\c1cccc2c1OCO2`
### Response false (0)

### Prompt Give the logged outcome of this assay for the following compound: `CCCCCCCCCCCCOCCCOP(=O)([O-])OCC[N+](C)(C)C`
### Response false (0)

### Prompt Give the logged outcome of this assay for the following compound: `CC(C)OC(=O)OCSc1ccccc1/N=C/c1cccc([N+](=O)[O-])c1`
### Response false (0)

### Prompt Give the logged outcome of this assay for the following compound: CCCCOC(C)(C)/C=C/C(O)[C@](C)(O)[C@H]1[C@H](O)C[C@@]2(C)[C@@H]3CCc4c(cc(OC5OC(CO)C(O)C(O)C5O)c(O)c4C)C3(C)C(=O)C[C@]12C (stereo partly specified)
### Response false (0)

###

Tested on: UACC-62
assay_text: NCI tumour cell line growth inhibition, 48 h
Active and inactive are the calls of the source. No stated cut-off is given here; in the data, active = GI50 up to about 1.1 µM and inactive = higher.
measure_name: GI50

CC(C)CC1[C@@H](OCc2ccccc2)COS(=O)(=O)N1Cc1ccccc1 (stereo partly drawn) = > 100 µM (inactive)

### Prompt Identify measured GI50 corresponding to COc1ccc(N2C(=O)[C@@H]3[C@H](C2=O)c2[nH]c4ccccc4c2C2CCC(C(C)(C)C)C[C@@H]23)cc1 (stereo partly drawn)
### Response 19.1 µM (inactive)

### Prompt Identify measured GI50 corresponding to COc1cc(C2C3=C(N=C4SC(C(C)=O)=C(C)N42)c2ccccc2CC3)cc(OC)c1OC (stereo not drawn)
### Response > 100 µM (inactive)

###

Test system: SF-268
assay_text: NCI tumour cell line growth inhibition, 48 h
Active and inactive are the calls of the source. No stated cut-off is given here; in the data, active = GI50 up to about 1.1 µM and inactive = higher.
Would you mind answering with one of these outcomes? Y = active, N = inactive

C=C(Cl)/C(=C\Br)CCC(Cl)C(C)C.C=C(Cl)/C(=C\Cl)CCC(Cl)C(C)C (configuration not stated) = N
COc1cc2nc(-c3cccs3)oc(=O)c2cc1OC = N
Cc1nnc2nc(-c3ccc(Cl)cc3Cl)cc(-c3ccc(Cl)cc3)n12 = N
OC1(c2ccccc2)CCCCCCCCC(O)(c2ccccc2)CCCCCCCC1 (configuration not stated) = N

### Prompt Give the logged outcome of this assay for the following compound: CC(=O)Nc1ccc(C(=O)NN2C(=O)C(Cl)C2c2cccc([N+](=O)[O-])c2)cc1 (configuration not stated)
### Response N

### Prompt Give the logged outcome of this assay for the following compound: `CCOC(=O)CCc1c(C)c2c(OC)cc(OC)cc2oc1=O`
### Response N

### Prompt Give the logged outcome of this assay for the following compound: N#CC(C(=O)O)C(c1c(Cl)cccc1Cl)C(C#N)C(=O)O (configuration not stated)
### Response N

###

Test system: SK-MEL-5
assay_text: NCI tumour cell line growth inhibition, 48 h
The source made the active and inactive calls. Rule as the data show it: active = GI50 up to about 1.1 µM and inactive = higher.
Would you mind answering with one of these outcomes? class 1 = active, class 0 = inactive

Some solved cases for reference:
CN(C)c1cccc(/C=C(\C#N)c2ccccc2)c1 = class 1
CCn1c(=O)c(C(=O)O)c(Cl)c2cc3c(cc21)OCO3 = class 0
O=C1CCCC[C@H]1[C@H]1CCC[C@@H]([C@H]2CCCCC2=O)C1=O = class 0
Cc1ccc2c(O)cc(-c3sccc3C)nc2n1 = class 1
COc1ccc(C2=C(OC(C)=O)c3cccn3-c3ccccc3S2)cc1 = class 0

### Prompt Give the logged outcome of this assay for the following compound: C=CCCC1(O)C(O)C(CO)O[C@H](O[C@@]2(CO)OC(CO)C(O)C2O)C1O (some centres not stated)
### Response class 0

### Prompt Give the logged outcome of this assay for the following compound: `CCCCC(=O)/C=c1/cc(C)[nH]c2cccc3cnn1c32`
### Response class 0

### Prompt Give the logged outcome of this assay for the following compound: `Oc1c(N2CCOCC2)cc(-c2cc(N3CCOCC3)c(O)c3ccccc23)c2ccccc12`
### Response class 1

### Prompt Give the logged outcome of this assay for the following compound: O=C1/C(=C\c2cccc(Oc3ccccc3)c2)SC(c2ccccc2)N1c1cc(Cl)ccc1Cl (configuration not stated)
### Response class 0

### Prompt Give the logged outcome of this assay for the following compound: CC(C)(CO)N1C(=O)c2ccccc2C1(O)c1ccc(Cl)cc1 (configuration not stated)
### Response class 0

### Prompt Give the logged outcome of this assay for the following compound: `CCC(=O)OCN(C)c1nc(N(C)COC(=O)CC)nc(N(C)COC(=O)CC)n1`
### Response class 0

### Prompt Give the logged outcome of this assay for the following compound: `O=c1c2ccccc2ncn1COCc1ccccc1`
### Response class 0

###

Test system: UO-31
assay_text: NCI tumour cell line growth inhibition, 48 h
Calls of active or inactive are those of the source. Rule as the data show it: active = GI50 up to about 1.1 µM and inactive = higher.
Reported values of GI50 for individual entries

### Prompt Name the value of GI50 reported for CC(C)(CO)N1C(=O)c2ccccc2C1(O)c1ccc(Cl)cc1 (stereo unspecified) when tested on UO-31.
### Response 63.2 µM (inactive)

### Prompt Name the value of GI50 reported for `S=c1nc(N2CCCCC2)ss1` when tested on UO-31.
### Response 17.7 µM (inactive)

### Prompt Name the value of GI50 reported for CC(=O)[C@H]1CC[C@@H]2[C@]1(C)CC=C1[C@]23C=C[C@]2(C[C@@H](O)CC[C@]12C)C(C(=O)O)C3C(=O)O (stereo partly specified) when tested on UO-31.
### Response > 100 µM (inactive)

### Prompt Name the value of GI50 reported for `Oc1nc(-c2ccc3ccccc3c2)nc2ccccc12` when tested on UO-31.
### Response 23.4 µM (inactive)

### Prompt Name the value of GI50 reported for `c1ccc(-c2ccc(-c3ccc(C4=NCCN4)cc3)o2)cc1` when tested on UO-31.
### Response 1.71 µM (inactive)

### Prompt Name the value of GI50 reported for CCCCOC(C)(C)/C=C/C(O)[C@](C)(O)[C@H]1[C@H](O)C[C@@]2(C)[C@@H]3CCc4c(cc(OC5OC(CO)C(O)C(O)C5O)c(O)c4C)C3(C)C(=O)C[C@]12C (stereo partly specified) when tested on UO-31.
### Response > 100 µM (inactive)

###

System: MDA-MB-231
assay_text: NCI tumour cell line growth inhibition, 48 h
Calls of active or inactive are those of the source. Rule as the data show it: active = GI50 up to about 1.1 µM and inactive = higher.
Would you mind answering with one of these outcomes? 1 for active, 0 for inactive

Some solved cases for reference:
NC(=O)NC(=O)C1CCCCC1C(=O)O (stereo not given) = 0
CC(NC(=O)C(N)CC(=O)O)NC(=O)N1CCOCC1 (stereo not given) = 0
OCCN1c2ccccc2Sc2ccccc21 = 0

### Prompt Give the logged outcome of this assay for the following molecule: `c1ccc(SC(Sc2ccccc2)c2ccc3c(c2)OCO3)cc1`
### Response 0

### Prompt Give the logged outcome of this assay for the following molecule: CC1(C)CCC2=C(O1)c1ccccc1C(=O)C2=O [LAPACHONE]
### Response 1

### Prompt Give the logged outcome of this assay for the following molecule: `CCOC(CN(C)C(=O)Nc1ccc(Cl)c(Cl)c1)OCC`
### Response 0

### Prompt Give the logged outcome of this assay for the following molecule: `O=C(CCc1cccc(O)c1)NCCCNC(=O)CCc1cccc(O)c1`
### Response 0

### Prompt Give the logged outcome of this assay for the following molecule: `O=S(=O)(O)c1ccc2cc(/N=N\c3cc(S(=O)(=O)O)c4cccnc4c3O)ccc2c1`
### Response 0

### Prompt Give the logged outcome of this assay for the following molecule: COc1cc(C2C3=C(N=C4SC(C(C)=O)=C(C)N42)c2ccccc2CC3)cc(OC)c1OC (stereo not given)
### Response 0

### Prompt Give the logged outcome of this assay for the following molecule: `O=S(=O)(Oc1ccc2ccccc2c1-c1c(OS(=O)(=O)C(F)(F)F)ccc2ccccc12)C(F)(F)F`
### Response 0
